# viability per entry
ASSAY PROCEDURE: MRP1 drug-resistance reversers in H69AR cells – cell-based, doxorubicin co-treatment, pilot screen (AID 601)
EXPERIMENTAL CONDITIONS: H69AR cells, CellTiter-Glo, 72 h; compound alone cytotoxicity; at 10 µM

Answered cases to consult:
CSc1ccc2c(c1)N(CCC1CCCCN1C)c1ccccc1S2 (stereo unspecified)
1.93%
CSc1nnc2c3ccccc3n(Cc3ccccc3)c2n1
31.6%
CCCN(CCC)CCCNS(=O)(=O)c1ccc2c(c1)oc(=O)n2C
94.7%
COCCCNC(=O)CC(NS(=O)(=O)c1ccc(Cl)cc1)c1ccco1 (stereo unspecified)
87.5%
O=C1CCCc2c1nn(-c1ccccc1)[n+]2[O-]
98.1%

Could you now consider this next molecule?
(Q) // query viability value for entry O=C1CC(Sc2nnc(-c3ccccc3)o2)C(=O)N1c1ccccc1 (stereo unspecified)
(A) 2.27%
